Each entry below lists one item and its recorded B/Bo (inhibition of binding to LR04) value.
Target: LRO4
Assay: competitive phage ELISA, coated LRO4; competitor MDA-LDL 50 µg/mL
Bridges are numbered along the chain shown (N, C = ends). Where no end group is shown, it is not given here.
experimental-readout: B/Bo (inhibition of binding to LR04) (B/Bo)

INSERT INTO measurements (binder, result) VALUES
  ('NSWTNASLSTFHGGGS (peptide, not shown: large carriers) [phage clone A40]', 0.1),
  ('HRMTNAMHHFMGGGGS (peptide, not shown: large carriers) [phage clone A38]', 0.1),
  ('GWGNKTPSQDVHGGGS (peptide, not shown: large carriers) [phage clone A39]', 0.19),
  ('NSRTNNSQWTFQGGGS (peptide, not shown: large carriers) [phage clone A34]', 0.11),
  ('ASISNLTLSRFMGGGS (peptide, not shown: large carriers) [phage clone M15]', 0.15),
  ('EVMNNWTLASIMGGGS (peptide, not shown: large carriers) [phage clone M30]', 0.06),
  ('TAVTNSMMERLWGGGS (peptide, not shown: large carriers) [phage clone M8]', 0.2),
  ('ACKNSXQPLCGGGS (peptide, not shown: large carriers, disulfide 2-10; not fully specified; X: residue not identified in the source) [phage clone Ca4]', 0.13),
  ('QNMNNWTLASIMGGGS (peptide, not shown: large carriers) [phage clone A31]', 0.25),
  ('HRLTNSEQAALPGGGS (peptide, not shown: large carriers) [phage clones M3, M5]', 0.1),
  ('HQLSNKDEQTPQGGGS (peptide, not shown: large carriers) [phage clone A33]', 0.14),
  ('ACNNWNMPLCGGGS (peptide, not shown: large carriers, disulfide 2-10; also: C-terminus fused to phage pIII) [phage clones Ca1, Ca7]', 0.04),
  ('ADPFSPTNRIPLGGGS (peptide, not shown: large carriers) [phage clone M7]', 0.1),
  ('ACDWAPHFTCGGGS (peptide, not shown: large carriers, disulfide 2-10; also: C-terminus fused to phage pIII) [phage clone Cb2]', 0.03);

Hello, the source for this data is patent US20150056209A1, in case you need it.
